src = ChEMBL document CHEMBL1141005

- System: HpG2
- METHOD: Selectivity ratio of EC50 for human PPARgamma receptor to human PPARalpha receptor expressed in human HpG2 cells
- Assay type: cell-based
The following compounds are shown together with reported Ratio EC50 values.
Please reply with the number alone, leaving off any unit.

• COc1ccc(OC(=O)N(CCCCCc2coc(-c3ccc(C)cc3)n2)CC(=O)O)cc1 = 12
• COc1ccc(OC(=O)N(CCCCCCc2nc(-c3ccc(C)cc3)oc2C)CC(=O)O)cc1 = 13
• Cc1ccc(-c2nc(CCCCO/N=C(\CCC(=O)O)c3ccccc3)c(C)o2)cc1 = 113000
• Cc1ccc(-c2nc(CCCCCO/N=C(/CCC(=O)O)c3ccccc3)c(C)o2)cc1 = 15
• Cc1ccc(-c2nc(CCCCCCO/N=C(/CCC(=O)O)c3ccccc3)c(C)o2)cc1 = 1000

// next entry
In plain terms, `Cc1ccc(-c2nc(COc3ccc(C[C@H]4CO[C@@](C)(C(=O)O)OC4)cc3)c(C)o2)cc1` has a documented Ratio EC50 of 0.2

---

- ASSAYED SYSTEM: Peroxisome proliferator-activated receptor alpha (Homo sapiens)
- Sequence (Q07869 whole entry): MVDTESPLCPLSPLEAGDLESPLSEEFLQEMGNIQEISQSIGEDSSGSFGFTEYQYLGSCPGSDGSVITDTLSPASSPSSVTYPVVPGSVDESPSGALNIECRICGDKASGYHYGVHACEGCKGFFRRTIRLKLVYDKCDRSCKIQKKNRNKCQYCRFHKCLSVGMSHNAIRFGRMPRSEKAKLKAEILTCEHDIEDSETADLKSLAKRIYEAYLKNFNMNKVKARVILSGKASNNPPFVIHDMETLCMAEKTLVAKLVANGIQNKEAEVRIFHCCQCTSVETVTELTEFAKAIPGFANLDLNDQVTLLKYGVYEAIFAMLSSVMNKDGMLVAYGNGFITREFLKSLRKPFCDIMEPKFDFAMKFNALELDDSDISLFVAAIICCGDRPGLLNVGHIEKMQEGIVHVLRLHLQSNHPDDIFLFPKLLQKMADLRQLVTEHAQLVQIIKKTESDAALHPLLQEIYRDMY
- METHOD: Agonist activity at human PPARalpha transactivation expressed in human HePG2 cells
Rule: EC50 below 2 nM gives true (1), anything at or above gives false (0).

Known results for compounds:
* COc1ccc(OC(=O)N(CCCCCc2coc(-c3ccc(C)cc3)n2)CC(=O)O)cc1 | false (0)
* COc1ccc(OC(=O)N(CC(=O)O)Cc2ccc(OCCc3nc(-c4ccccc4)oc3C)cc2)cc1 [MURAGLITAZAR] | false (0)
* Cc1ccc(-c2nc(COc3ccc(C[C@H]4CO[C@@](C)(C(=O)O)OC4)cc3)c(C)o2)cc1 | false (0)
* Cc1oc(-c2ccccc2)nc1COc1ccc(CO/N=C(\CCC(=O)O)c2ccccc2)cc1 [IMIGLITAZAR] | false (0)
* COc1ccc(OC(=O)N(CCCCCCc2nc(-c3ccc(C)cc3)oc2C)CC(=O)O)cc1 | false (0)
* Cc1ccc(-c2nc(CCCCO/N=C(\CCC(=O)O)c3ccccc3)c(C)o2)cc1 | true (1)

Please turn your attention to the following entry.
INPUT: Input `Cc1ccc(-c2nc(CCCCCCO/N=C(/CCC(=O)O)c3ccccc3)c(C)o2)cc1` ; condition: EC50 strictly below 2 nM. Does it hold?
OUTPUT: true (1)

---

- ASSAYED SYSTEM: Peroxisome proliferator-activated receptor gamma (Homo sapiens, UniProt P37231)
- Sequence (P37231 whole entry): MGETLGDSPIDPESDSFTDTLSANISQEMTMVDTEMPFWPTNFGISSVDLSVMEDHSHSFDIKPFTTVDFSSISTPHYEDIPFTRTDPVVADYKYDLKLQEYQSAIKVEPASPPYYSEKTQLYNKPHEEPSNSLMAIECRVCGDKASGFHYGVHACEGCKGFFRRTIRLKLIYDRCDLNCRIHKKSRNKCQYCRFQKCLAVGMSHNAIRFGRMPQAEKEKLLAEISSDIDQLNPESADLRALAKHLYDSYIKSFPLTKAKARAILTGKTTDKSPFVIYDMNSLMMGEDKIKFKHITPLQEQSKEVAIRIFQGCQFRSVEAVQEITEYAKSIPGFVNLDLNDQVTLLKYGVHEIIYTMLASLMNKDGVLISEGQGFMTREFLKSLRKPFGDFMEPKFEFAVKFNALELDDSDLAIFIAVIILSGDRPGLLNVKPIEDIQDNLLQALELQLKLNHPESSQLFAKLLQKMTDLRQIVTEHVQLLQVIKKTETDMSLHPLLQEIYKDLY
- METHOD: Agonist activity at human PPARgamma transactivation expressed in human HePG2 cells
RECORDED ENDPOINT: EC50 (nM)
Your answer should be a plain number; it is taken to be in nM.

Below, each entry is followed by its recorded EC50 result.
- Cc1ccc(-c2nc(CCCCO/N=C(\CCC(=O)O)c3ccccc3)c(C)o2)cc1: 430
- COc1ccc(OC(=O)N(CCCCCc2coc(-c3ccc(C)cc3)n2)CC(=O)O)cc1: 560
- Cc1ccc(-c2nc(CCCCCO/N=C(/CCC(=O)O)c3ccccc3)c(C)o2)cc1: 31
- Cc1ccc(-c2nc(CCCCCCO/N=C(/CCC(=O)O)c3ccccc3)c(C)o2)cc1: 100
- COc1ccc(OC(=O)N(CCCCCCc2nc(-c3ccc(C)cc3)oc2C)CC(=O)O)cc1: 450

Now examine the next entry.
Notebook: `Cc1ccc(-c2nc(CCCC[C@H]3CO[C@@](C)(C(=O)O)OC3)c(C)o2)cc1` , EC50 read as 6850
